- target-under-test: human proteinase 3 (Homo sapiens, UniProt P24158)
- Sequence (P24158 28-248): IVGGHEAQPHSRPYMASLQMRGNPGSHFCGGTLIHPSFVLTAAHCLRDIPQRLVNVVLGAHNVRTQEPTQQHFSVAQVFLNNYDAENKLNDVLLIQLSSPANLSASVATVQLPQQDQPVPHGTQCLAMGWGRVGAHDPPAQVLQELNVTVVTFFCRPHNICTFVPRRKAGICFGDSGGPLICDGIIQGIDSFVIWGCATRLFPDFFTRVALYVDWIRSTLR
Where a SMILES comes first, the peptide text is derived from it. [ ]: non-standard residue; d: D form. Oic = O=C(O)[C@@H]1C[C@@H]2CCCC[C@@H]2N1; Gly(octyl) = CCCCCCCC[C@H](N)C(=O)O
assay-readout: pIC50
Please express pIC50 as -log10 of the molar concentration.

Item CCCCCCCC[C@@H]1NC(=O)[C@@H]2C[C@@H]3CCCC[C@@H]3N2C(=O)[C@H]2CCCN2C(=O)[C@H]([C@@H](C)O)NC(=O)[C@H](CCCCN)NC(=O)[C@H](CCC(N)=O)NC(=O)[C@@H]2CCCN2C(=O)[C@@H]2CCCN2C(=O)[C@H]([C@@H](C)CC)NC(=O)[C@H](CO)NC(=O)[C@H](C)NC(=O)[C@H]([C@@H](C)O)NC(=O)[C@H](CCC(=O)O)NC1=O [Example 6] (cyclo([Gly(octyl)]ETASIPPQKT[dP][Oic])) ; assay system human proteinase 3 (Homo sapiens, UniProt P24158); pIC50 reported as 5.35

###

- target-under-test: human proteinase 3 (Homo sapiens, UniProt P24158)
*1 amine or outer side, *2 acyl side, *3 side chain or, on linkers, in order; H or OH if unused. Where a SMILES comes first, the peptide text is derived from it. [ ]: non-standard residue; d: D form. X2 = C[C@@H](O)[C@@H](CCC(=O)[*:2])N[*:1]; Gly(octyl) = CCCCCCCC[C@H](N)C(=O)O; aThr = C[C@H](O)[C@H](N)C(=O)O; β3hQ = NC(=O)CC[C@H](N)CC(=O)O; AllylGly = C=CC[C@H](N)C(=O)O
We begin with a simple list: items and their reported pIC50.
Please express pIC50 as -log10 of the molar concentration.

Item CCCCCCCC[C@@H]1NC(=O)[C@@H]2CCCN2C(=O)[C@H]2CCCN2C(=O)[C@H]([C@H](C)O)NC(=O)[C@H](CCCCN)NC(=O)[C@H](CCC(N)=O)NC(=O)[C@@H]2CCCN2C(=O)[C@@H]2CCCN2C(=O)[C@H]([C@@H](C)CC)NC(=O)[C@H](CO)NC(=O)[C@H](C)NC(=O)[C@H]([C@@H](C)O)NC(=O)[C@H](CCC(=O)O)NC1=O [Example 3] (cyclo([Gly(octyl)]ETASIPPQK[aThr][dP]P)) ; assay system human proteinase 3 (Homo sapiens, UniProt P24158); pIC50 reported as 6.00

Item C=CC[C@@H]1NC(=O)[C@H]([C@@H](C)O)NC(=O)[C@H](CCC(=O)O)NC(=O)[C@H](CCC(=O)N[C@@H](Cc2ccccc2)C(=O)O)NC(=O)[C@@H]2CCCN2C(=O)[C@H]2CCCN2C(=O)[C@H](Cc2ccc(O)cc2)NC(=O)[C@H](CCCCN)NC(=O)[C@H](CCC(N)=O)NC(=O)[C@@H]2CCCN2C(=O)[C@@H]2CCCN2C(=O)[C@H]([C@@H](C)CC)NC(=O)[C@H](CO)NC1=O [Example 17] (cyclo(E(Phe)ET[AllylGly]SIPPQKY[dP]P)) ; assay system human proteinase 3 (Homo sapiens, UniProt P24158); pIC50 reported as 4.22

Item CCCCCCCC[C@@H]1NC(=O)[C@@H]2CCCN2C(=O)[C@H]2CCCN2C(=O)[C@H]([C@@H](C)O)NC(=O)[C@H](CCCCN)NC(=O)C[C@H](CCC(N)=O)NC(=O)[C@@H]2CCCN2C(=O)[C@@H]2CCCN2C(=O)[C@H]([C@@H](C)CC)NC(=O)[C@H](CO)NC(=O)[C@H](C)NC(=O)[C@H]([C@@H](C)O)NC(=O)[C@H](CCC(=O)O)NC1=O [Example 36] (cyclo([Gly(octyl)]ETASIPP[β3hQ]KT[dP]P)) ; assay system human proteinase 3 (Homo sapiens, UniProt P24158); pIC50 reported as 5.23

Item CCCCCCCC[C@@H]1NC(=O)[C@@H]2CCCN2C(=O)[C@H]2CCCN2C(=O)CC[C@H]([C@@H](C)O)NC(=O)[C@H](CCCCN)NC(=O)[C@H](CCC(N)=O)NC(=O)[C@@H]2CCCN2C(=O)[C@@H]2CCCN2C(=O)[C@H]([C@@H](C)CC)NC(=O)[C@H](CO)NC(=O)[C@H](C)NC(=O)[C@H]([C@@H](C)O)NC(=O)[C@H](CCC(=O)O)NC1=O [Example 11] (cyclo([Gly(octyl)]ETASIPPQK[X2][dP]P)) ; assay system human proteinase 3 (Homo sapiens, UniProt P24158); pIC50 reported as 4.68

Item CCCCCCCC[C@@H]1NC(=O)[C@H](C(C)C)NC(=O)[C@@H](CCCCN)NC(=O)[C@H]([C@@H](C)O)NC(=O)[C@H](CCCCN)NC(=O)[C@H](CCC(N)=O)NC(=O)[C@@H]2CCCN2C(=O)[C@@H]2CCCN2C(=O)[C@H]([C@@H](C)CC)NC(=O)[C@H](CO)NC(=O)[C@H](C)NC(=O)[C@H]([C@@H](C)O)NC(=O)[C@H](CCC(=O)O)NC1=O [Example 26] (cyclo([Gly(octyl)]ETASIPPQKT[dK]V)) ; assay system human proteinase 3 (Homo sapiens, UniProt P24158); pIC50 reported as 5.30
